Readings of IC50 for the listed molecules
Test system: geranylgeranylation of Rap1A
experiment_notes: Whole cell inhibition of Rap1A processing (geranylgeranylation), immunoblot, oncogenic H-Ras-transformed NIH3T3 cells
Assay type: cell-based, mouse
measurement_conditions: Mus musculus; whole cells, oncogenic H-Ras-transformed NIH3T3; n = 3 unless stated; read-out: Rap1A processing IC50

Use these answered entries as a reference point.
Cn1cnc(S(=O)(=O)N(CCN(Cc2cncn2C)c2ccc(C#N)cc2)CC(=O)NC(C)(C)C)c1: > 10 µM
Cn1cncc1CN(CCN(CC1CCCCC1)S(=O)(=O)c1ccccn1)c1ccc(C#N)cc1F [21b]: 2.7 µM

What value of IC50 has been recorded for this entry: Cc1noc(C)c1CN(CCN(Cc1cncn1C)c1ccc(C#N)cc1)S(=O)(=O)c1cn(C)cn1
> 10 µM

What value of IC50 has been recorded for this entry: Cn1cncc1CN(CCN(CC1CCCCC1)S(=O)(=O)c1ccccn1)c1ccc(C#N)cn1 [21c]
19 µM

What value of IC50 has been recorded for this entry: Cn1cnc(S(=O)(=O)N(CCN(Cc2cncn2C)c2ccc(C#N)cc2)Cc2cccc(-c3ccccc3)c2)c1
> 10 µM
